Tested on: Staphylococcus aureus MW2 delta-mecA (mecA-)
assay_overview: normalized GFP fluorescence (growth of mecA- strain) (fraction of control range); higher = more growth of mecA- strain
study_conditions: compound concentration: 150 uM; cefoxitin: subinhibitory; fluorescent label: GFP
Where a name gives a salt, the structure may show the parent alone.
For each of the compounds below, state its normalized GFP fluorescence.
Answers are plain numbers.

For every listed record, write down its normalized GFP fluorescence.
1. O=S(=O)(O)CCS
2. CC1(C)O[C@@H]2C[C@H]3[C@@H]4C[C@H](F)C5=CC(=O)C=C[C@]5(C)[C@@]4(F)[C@@H](O)C[C@]3(C)[C@]2(C(=O)CO)O1
3. OCCN1CCN(CCCN2c3ccccc3Sc3ccc(C(F)(F)F)cc32)CC1
4. CC(=O)c1ccc2c(c1)N(CCCN1CCN(CCO)CC1)c1ccccc1S2
5. Fc1ccc(C(c2ccc(F)cc2)N2CCN(C/C=C/c3ccccc3)CC2)cc1
6. CN1CCC[C@@H]1CCO[C@](C)(c1ccccc1)c1ccc(Cl)cc1 [Clemastine Fumarate]

[0.0478, 0.372, 0.0603, 0.252, 0.0954, 0.00687]

Source of measurements: the supplement of paper PMC7695840
